- TGT: CaV2.2 (Homo sapiens)
- Sequence (Q00975 whole entry): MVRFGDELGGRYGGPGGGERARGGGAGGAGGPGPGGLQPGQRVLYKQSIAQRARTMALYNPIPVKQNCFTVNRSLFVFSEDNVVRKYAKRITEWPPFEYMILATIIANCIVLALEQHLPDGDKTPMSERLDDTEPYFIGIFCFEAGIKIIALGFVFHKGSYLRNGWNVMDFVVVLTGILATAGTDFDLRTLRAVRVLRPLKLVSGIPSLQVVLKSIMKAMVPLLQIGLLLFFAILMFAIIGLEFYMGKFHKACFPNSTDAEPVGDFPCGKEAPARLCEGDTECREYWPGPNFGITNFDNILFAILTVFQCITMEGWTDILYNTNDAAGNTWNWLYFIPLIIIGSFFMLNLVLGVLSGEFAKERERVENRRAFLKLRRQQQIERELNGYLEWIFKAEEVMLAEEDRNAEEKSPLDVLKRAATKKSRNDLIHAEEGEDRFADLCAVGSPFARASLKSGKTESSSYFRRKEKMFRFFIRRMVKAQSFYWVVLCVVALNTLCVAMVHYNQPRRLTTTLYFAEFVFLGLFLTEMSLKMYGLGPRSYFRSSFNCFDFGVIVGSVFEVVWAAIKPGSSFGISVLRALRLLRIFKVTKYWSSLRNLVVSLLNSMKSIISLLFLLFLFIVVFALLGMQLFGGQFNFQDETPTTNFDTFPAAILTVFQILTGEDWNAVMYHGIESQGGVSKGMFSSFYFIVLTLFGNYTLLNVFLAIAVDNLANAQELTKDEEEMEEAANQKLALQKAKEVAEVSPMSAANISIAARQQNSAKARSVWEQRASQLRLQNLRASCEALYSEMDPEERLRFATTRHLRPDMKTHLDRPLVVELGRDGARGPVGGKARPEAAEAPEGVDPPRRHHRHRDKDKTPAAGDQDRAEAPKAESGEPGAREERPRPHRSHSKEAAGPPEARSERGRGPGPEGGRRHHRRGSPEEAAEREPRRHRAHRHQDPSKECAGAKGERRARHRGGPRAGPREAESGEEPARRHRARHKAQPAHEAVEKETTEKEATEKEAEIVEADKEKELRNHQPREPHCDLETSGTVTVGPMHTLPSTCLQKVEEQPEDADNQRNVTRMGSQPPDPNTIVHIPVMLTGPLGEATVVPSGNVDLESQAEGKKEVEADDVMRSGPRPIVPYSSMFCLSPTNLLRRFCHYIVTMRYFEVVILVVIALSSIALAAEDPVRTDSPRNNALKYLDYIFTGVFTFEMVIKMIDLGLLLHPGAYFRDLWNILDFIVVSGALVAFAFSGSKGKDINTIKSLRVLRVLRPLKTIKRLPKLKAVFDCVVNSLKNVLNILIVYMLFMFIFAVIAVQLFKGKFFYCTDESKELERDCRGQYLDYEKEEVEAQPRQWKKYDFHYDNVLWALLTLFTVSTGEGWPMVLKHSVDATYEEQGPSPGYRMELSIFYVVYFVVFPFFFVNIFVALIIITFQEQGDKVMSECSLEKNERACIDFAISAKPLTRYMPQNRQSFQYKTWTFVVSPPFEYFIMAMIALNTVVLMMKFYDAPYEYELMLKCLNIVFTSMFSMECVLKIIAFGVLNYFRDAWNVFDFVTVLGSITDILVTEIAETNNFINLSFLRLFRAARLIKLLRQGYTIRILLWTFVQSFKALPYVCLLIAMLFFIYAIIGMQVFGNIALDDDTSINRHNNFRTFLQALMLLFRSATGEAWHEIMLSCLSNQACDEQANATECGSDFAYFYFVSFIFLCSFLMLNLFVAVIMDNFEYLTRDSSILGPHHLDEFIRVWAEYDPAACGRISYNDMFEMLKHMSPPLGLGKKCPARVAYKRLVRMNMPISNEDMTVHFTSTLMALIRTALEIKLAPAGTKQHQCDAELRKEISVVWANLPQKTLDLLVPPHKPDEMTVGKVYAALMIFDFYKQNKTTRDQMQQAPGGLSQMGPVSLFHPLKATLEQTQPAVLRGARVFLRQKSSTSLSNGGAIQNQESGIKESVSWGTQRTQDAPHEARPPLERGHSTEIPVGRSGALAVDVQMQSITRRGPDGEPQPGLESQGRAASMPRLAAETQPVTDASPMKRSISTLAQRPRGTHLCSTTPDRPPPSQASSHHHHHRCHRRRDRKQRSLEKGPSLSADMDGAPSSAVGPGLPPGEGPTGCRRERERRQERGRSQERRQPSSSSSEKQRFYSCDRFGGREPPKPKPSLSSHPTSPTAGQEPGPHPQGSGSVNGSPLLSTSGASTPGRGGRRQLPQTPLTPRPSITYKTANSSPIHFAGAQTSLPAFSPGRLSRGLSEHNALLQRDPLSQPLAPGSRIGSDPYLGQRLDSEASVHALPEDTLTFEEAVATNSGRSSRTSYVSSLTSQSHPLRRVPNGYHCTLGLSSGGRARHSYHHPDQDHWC
- Sequence (P54284 whole entry partner): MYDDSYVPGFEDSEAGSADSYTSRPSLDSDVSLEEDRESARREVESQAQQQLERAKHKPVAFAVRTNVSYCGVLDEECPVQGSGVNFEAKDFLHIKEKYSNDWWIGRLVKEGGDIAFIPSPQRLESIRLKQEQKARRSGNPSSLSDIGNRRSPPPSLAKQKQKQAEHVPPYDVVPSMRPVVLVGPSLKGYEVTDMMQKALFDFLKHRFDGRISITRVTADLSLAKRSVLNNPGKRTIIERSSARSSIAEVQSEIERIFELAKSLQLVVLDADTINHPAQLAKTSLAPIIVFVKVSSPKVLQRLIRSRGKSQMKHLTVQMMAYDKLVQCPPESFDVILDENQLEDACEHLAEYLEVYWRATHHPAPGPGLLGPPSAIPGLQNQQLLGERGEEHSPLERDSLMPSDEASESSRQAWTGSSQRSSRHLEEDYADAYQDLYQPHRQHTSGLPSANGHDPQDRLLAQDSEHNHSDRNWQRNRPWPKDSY
- Sequence (P54289 25-956 partner limits assumed): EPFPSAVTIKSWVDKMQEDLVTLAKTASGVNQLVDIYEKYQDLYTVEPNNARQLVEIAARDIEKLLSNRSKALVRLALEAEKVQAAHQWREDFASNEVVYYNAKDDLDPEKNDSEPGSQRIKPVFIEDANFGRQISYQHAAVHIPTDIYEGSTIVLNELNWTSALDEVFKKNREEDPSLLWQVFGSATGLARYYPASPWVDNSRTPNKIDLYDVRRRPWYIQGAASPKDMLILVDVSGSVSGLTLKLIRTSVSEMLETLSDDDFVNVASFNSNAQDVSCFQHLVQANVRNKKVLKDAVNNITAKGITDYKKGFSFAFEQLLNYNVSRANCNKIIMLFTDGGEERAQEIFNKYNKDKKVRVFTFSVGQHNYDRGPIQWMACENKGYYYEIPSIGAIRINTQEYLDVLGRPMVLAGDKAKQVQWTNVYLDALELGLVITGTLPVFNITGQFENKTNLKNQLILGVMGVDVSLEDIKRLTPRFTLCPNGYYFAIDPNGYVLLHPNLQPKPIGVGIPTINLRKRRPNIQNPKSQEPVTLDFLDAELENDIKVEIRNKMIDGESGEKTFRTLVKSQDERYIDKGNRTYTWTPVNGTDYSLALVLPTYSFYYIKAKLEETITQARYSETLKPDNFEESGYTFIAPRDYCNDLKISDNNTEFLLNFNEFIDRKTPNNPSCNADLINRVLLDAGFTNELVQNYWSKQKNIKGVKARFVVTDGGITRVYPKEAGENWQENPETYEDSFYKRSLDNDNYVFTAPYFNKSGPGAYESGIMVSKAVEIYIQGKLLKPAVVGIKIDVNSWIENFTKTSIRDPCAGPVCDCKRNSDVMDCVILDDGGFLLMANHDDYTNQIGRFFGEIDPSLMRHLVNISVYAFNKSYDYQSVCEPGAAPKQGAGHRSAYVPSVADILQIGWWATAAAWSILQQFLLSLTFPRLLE
- Sequence (P54289 957-1103 partner limits assumed): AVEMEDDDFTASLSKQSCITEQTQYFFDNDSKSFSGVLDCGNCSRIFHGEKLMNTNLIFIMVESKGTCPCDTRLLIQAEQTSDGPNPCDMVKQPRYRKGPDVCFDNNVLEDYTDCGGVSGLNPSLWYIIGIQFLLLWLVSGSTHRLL
- PROTOCOL_NOTES: VIPR optical membrane potential assay with electrical stimulation, CaV2.2
- REPORTED_CONDITIONS: Table 9, CaV 2.2 receptors
pIC50: −log10 of the molar value.
REPORTED_METRIC: pIC50

Recorded pIC50, per entry:
SMILES_REPRESENTATION	pIC50
CN(C)CCN(Cc1ccccc1)C(=O)c1cnc(N2CCOCC2)nc1-c1ccccc1F	< 5.00
CCN(Cc1cccc(C)c1)C(=O)c1cnc(NCCCOC)nc1-c1ccc(C#N)cc1	< 5.00
CN1CCN(c2ncc(C(=O)N(Cc3ccc(C(C)(C)C)cc3)C3CC3)c(-c3ccccc3F)n2)CC1	5.00 to 5.70
COc1ccc(N(C(=O)c2cnc(N3CCCCC3)nc2-c2ccccc2Cl)C(C)C)cc1	5.00 to 5.70
Cc1nc(N2CCOCC2)nc(-c2ccccc2F)c1C(=O)N(Cc1ccccc1)C1CCCC1	5.00 to 5.70

# ---- query compound ----
Give the measured pIC50 of CC(C)N(Cc1ccccc1)C(=O)c1cnc(Nc2cccc(Cl)c2)nc1-c1ccccc1F . < 5.00
